The reported numbers originate from patent US20230034474A1.

target: T1, Human Abeta1-42 biotinylated at the peptide C-terminus (human, biotin at the peptide C-terminus); assay: target capture ELISA
T1 construct: also called biotinylated Abeta1-42
Measured metric: binding result

binder="ACI-31-30C11-Ab1 (murine IgG2a with a kappa light chain) (antibody, V domains shown, also called AC-31-30C11-Ab1) VH: QVQLQQSGPELVKPGASVKISCKASGYAFSSSWLNWVKQRPGEGLEWIGRIYPGDGDINYNGKFKGKATLTADKSSSTAYMQLSSLTSDDSAVYFCTKRGRYALDYWGQGTSVTVSS VL: DIVLTQSPASLAVSLGQRATISCRASKSVDNYGKSFMHWFQQKPGQPPKLLIYRASNLESGIPARFSGSGSRTDFTLTINPVEADDVATYYCQQSNEDPYTFGGGTKLEMKR" measured_metric="binding result" reading=binds
binder="ACI-8041-5A6H9-Ab1 (antibody, mouse IgG2a, kappa, V domains shown, Murine IgG2a/kappa; also called ACI-8041-5A61H9-Ab1; AC-8041-5A619-Ab1) VH: DVQLQESGPGLVKPSQSLSLTCTVTGYSITSDYAWNWIRQFPGNKLEWMGYIDYSGITSYNPSLKSRISITRDTSKNQFFLQLNSVTTEDSATYYCARISGLDYDVRAGWFASWGQGTLVTVSA VL: DIVMTQAAFSNPVTLGTSVSISCRSSKSLLHSNGITYLYWYLQKPGQSPQLLIYQMSNLASGVPDRFSSSGSGTDFTLRISRVEAEDVGVYYCAQNLERPLTFGAGTKLELKR" measured_metric="binding result" reading=binds
binder="ACI-8041-3G11B3-Ab1 (antibody, mouse IgG2a, kappa, V domains shown, Murine IgG2a/kappa; also called ACD-8041-3G11B3-Ab1) VH: QVQLQQSGAELVKPGASVKLSCKASGYTFINYYIYWVKQRPGQGLEWIGEIIPSNDGTNFNEKFKTKATLTVDKSSSTAYMQLSSLTSEDSAVYYCTATGTVWGQGTLVTVSA VL: DVLMTQTPLSLPVSLGDQASISCRSSQSIVHSNGITYLEWYLQKPGQSPKLLIYKVSNRFSGVPDRFSGSGSGTDFTLKISRVEAEDLGVYYCFQGSHVPWTFGGGTKLEIKR" measured_metric="binding result" reading=binds
